# target entity: Torsin-1A (Homo sapiens)
# assay comment: TOR1A wild-type binding on microarray – cell lysate, small-molecule microarray, lysate, 635/667 nm, primary screen (AID 1149)
# assay setup: COS7 hTOR1A-WT lysate, 635 nm fluorescence, higher = more signal
Task for the reader: assign each of the following compounds its reported composite z-score.
The answer should be written as a number, with no unit following it.

Sure, the documented composite z-score for `[N-]=[N+]=NCc1ccccc1[C@H]1OC(c2ccc(OCCCO)cc2)=N[C@@]1(Cc1ccccc1)C(=O)O` is 0.112

Sure, the documented composite z-score for `O=C1O[C@H](c2ccccc2)[C@H](c2ccccc2)N2[C@H]1[C@@H](C(=O)NC[C@H](O)c1ccccc1)[C@]1(C(=O)Nc3ccc(C#CC4(O)CCCCCC4)cc31)[C@H]2c1ccccc1OCCO` is 0.644

Sure, the documented composite z-score for `OCCCc1cc[n+](Cc2cccc(OC(F)(F)F)c2)cc1` is 1.03

Sure, the documented composite z-score for `[N-]=[N+]=NCc1ccccc1C[C@]1(C(=O)NCc2ccccc2)COC(c2ccc(OCCCO)cc2)=N1` is -0.328

# credit: PubChem BioAssay
